Value source: the supplement of paper PMC7724964

- MEASURED ON: T1, YWHAB 1-246 14-3-3 (domain begin residue: 1, domain end residue: 246), P31946
- T1 chain: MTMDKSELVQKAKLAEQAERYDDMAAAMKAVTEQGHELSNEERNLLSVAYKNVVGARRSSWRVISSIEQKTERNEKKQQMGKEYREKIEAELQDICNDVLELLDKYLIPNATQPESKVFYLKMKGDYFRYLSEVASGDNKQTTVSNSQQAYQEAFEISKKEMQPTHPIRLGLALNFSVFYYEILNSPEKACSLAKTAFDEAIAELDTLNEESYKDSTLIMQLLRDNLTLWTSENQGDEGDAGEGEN
- TEST PROTOCOL: phage ELISA signal ratio (GST-PRM binding over GST background); higher = stronger binding of peptide-phage to the PRM
ASSAY READOUT: phage ELISA signal ratio
One number for each entry.

Observe how each entry below is paired with its result.
HKMEPWYTDWHADFLM 9.61
VWPMPQTWAEWQDLLA 17.7
RPAWMDSATWLMIQEW 22

Next:
**Q:** Tell me its phage ELISA signal ratio given `QNIEFVWWHKEWLENQ` as the entry.
**A:** 15.1
